Data origin, for the record: patent US20210388087A1

Target: T1, cyno CD137 (cynomolgus monkey, UniProt Q07011 24-186 (human entry), limits assumed)
T1 construct: also called cynomolgus monkey CD137
T1 chain: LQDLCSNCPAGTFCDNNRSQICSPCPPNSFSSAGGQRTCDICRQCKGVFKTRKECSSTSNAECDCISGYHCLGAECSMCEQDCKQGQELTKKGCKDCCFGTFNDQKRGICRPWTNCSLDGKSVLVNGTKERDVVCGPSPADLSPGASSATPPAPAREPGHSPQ
Experiment: SPR Biacore T200, IgG captured on protein A, 25 C;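 further: antigens diluted in ACES running buffer at pH 7.4 were flowed over antibodies held on a CM3 chip bearing amine-coupled protein A, with buffer alone serving as blank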
parameter.measured: kon (M⁻¹ s⁻¹)
Please reply with the bare figure in M⁻¹ s⁻¹ and do not write the unit itself.

dBBDu183/L067 (antibody, V domains shown, IgG format; constant regions not specified) VH: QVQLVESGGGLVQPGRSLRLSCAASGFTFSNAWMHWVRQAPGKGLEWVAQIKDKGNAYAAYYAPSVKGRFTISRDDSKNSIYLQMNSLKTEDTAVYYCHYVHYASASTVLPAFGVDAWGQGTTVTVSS VL: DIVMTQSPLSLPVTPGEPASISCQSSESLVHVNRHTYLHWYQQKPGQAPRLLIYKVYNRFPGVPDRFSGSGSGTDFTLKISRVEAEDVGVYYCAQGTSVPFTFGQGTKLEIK; 1310
dBBDu189/L126 (antibody, V domains shown, IgG format; constant regions not specified) VH: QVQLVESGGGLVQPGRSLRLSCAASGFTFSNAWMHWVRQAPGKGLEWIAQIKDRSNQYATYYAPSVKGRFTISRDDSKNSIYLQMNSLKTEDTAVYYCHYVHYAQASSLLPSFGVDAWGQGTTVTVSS VL: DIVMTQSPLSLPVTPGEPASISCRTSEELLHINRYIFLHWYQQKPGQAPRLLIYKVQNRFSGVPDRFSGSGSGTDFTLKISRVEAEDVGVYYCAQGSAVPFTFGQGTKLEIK; 807
dBBDu189/L112 (antibody, V domains shown, IgG format; constant regions not specified) VH: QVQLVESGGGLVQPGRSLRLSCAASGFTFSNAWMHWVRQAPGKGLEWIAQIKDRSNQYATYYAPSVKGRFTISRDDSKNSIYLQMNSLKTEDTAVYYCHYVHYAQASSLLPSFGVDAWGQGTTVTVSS VL: DIVMTQSPLSLPVTPGEPASISCTSDQELVHMNRHTYLHWYQQKPGQAPRLLIYKVYNRFPGVPDRFSGSGSGTDFTLKISRVEAEDVGVYYCAQGTSVPFTFGQGTKLEIK; 4980
dBBDu189/L116 (antibody, V domains shown, IgG format; constant regions not specified) VH: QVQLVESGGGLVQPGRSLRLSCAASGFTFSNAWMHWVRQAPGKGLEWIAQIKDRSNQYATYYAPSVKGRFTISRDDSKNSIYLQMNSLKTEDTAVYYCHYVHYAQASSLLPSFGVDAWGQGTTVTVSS VL: DIVMTQSPLSLPVTPGEPASISCSSSQELVHANRQIYLHWYQQKPGQAPRLLIYKVANRFPGVPDRFSGSGSGTDFTLKISRVEAEDVGVYYCAQGTQVPFTFGQGTKLEIK; 744
dBBDu167/L091 (antibody, V domains shown, IgG format; constant regions not specified) VH: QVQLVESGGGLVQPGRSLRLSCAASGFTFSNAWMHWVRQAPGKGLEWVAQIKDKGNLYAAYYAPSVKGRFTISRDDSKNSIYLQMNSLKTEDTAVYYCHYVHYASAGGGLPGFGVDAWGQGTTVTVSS VL: DIVMTQSPLSLPVTPGEPASISCSASESLLHNNRHTYLHWYQQKPGQAPRLLIYRVSNRFNGVPDRFSGSGSGTDFTLKISRVEAEDVGVYYCGQGTQVPFTFGQGTKLEIK; 2430

Qu. Provide one value: measured kon of dBBDu186/L108 (antibody, V domains shown, IgG format; constant regions not specified) VH: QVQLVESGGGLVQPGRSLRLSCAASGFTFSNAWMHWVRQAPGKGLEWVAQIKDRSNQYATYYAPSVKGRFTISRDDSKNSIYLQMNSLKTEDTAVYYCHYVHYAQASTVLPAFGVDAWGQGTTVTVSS VL: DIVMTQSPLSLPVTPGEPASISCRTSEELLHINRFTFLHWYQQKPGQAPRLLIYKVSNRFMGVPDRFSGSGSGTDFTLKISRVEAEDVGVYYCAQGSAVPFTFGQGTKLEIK
Ans. 225

Qu. Provide one value: measured kon of dBBDu183/L072 (antibody, V domains shown, IgG format; also called H183L072) VH: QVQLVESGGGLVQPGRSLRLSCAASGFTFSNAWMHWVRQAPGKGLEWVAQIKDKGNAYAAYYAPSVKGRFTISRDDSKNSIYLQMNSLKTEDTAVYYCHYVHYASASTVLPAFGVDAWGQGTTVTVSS VL: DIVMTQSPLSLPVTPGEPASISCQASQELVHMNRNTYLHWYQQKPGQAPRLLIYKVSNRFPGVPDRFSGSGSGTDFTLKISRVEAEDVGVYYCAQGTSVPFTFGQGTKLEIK
Ans. 1220
